# Test system: SNB-75 CNS
# Assay overview: NCI tumour cell line growth inhibition, 48 h
Property label: TGI

q: Bench note: what TGI did COc1ccc(C(OCC2OC(n3cc(C)c(=O)[nH]c3=O)CC2n2cc(Cn3cc(I)c(=O)[nH]c3=O)nn2)(c2ccccc2)c2ccccc2)cc1 (configuration not stated) show?
a: > 100 µM

q: Bench note: what TGI did O=C1C2C(C(=O)N1OS(=O)(=O)c1ccccc1)N(Cc1ccccc1)C(=O)N2Cc1ccccc1 (configuration not stated) show?
a: > 100 µM

q: Bench note: what TGI did Cc1ccccc1-n1c(=O)c2ncn(CCCl)c2n(-c2ccccc2C)c1=S show?
a: > 100 µM

q: Bench note: what TGI did COC1(OC)CCC2C1C1CCC(OC)(OC)C21 (configuration not stated) show?
a: > 50 µM

q: Bench note: what TGI did COC1CCC2C(NS(=O)(=O)c3ccc(C)cc3)CCCC2O1 (configuration not stated) (tested in a mixture with another compound) show?
a: > 34.5 µM

q: Bench note: what TGI did CCOC(=O)[C@]1(OC(C)=O)C[C@H](OC(C)=O)[C@@H](C(F)COP(=O)(OCc2ccccc2)OCc2ccccc2)O1 (some centres not stated) show?
a: > 100 µM

q: Bench note: what TGI did CCN(CCO)CC1CCCC2CCCCC21 (configuration not stated) show?
a: > 100 µM

q: Bench note: what TGI did Nc1cccc2cc(Cl)cnc12 show?
a: > 100 µM

q: Bench note: what TGI did C/C(CC(=O)CCC(=O)Nc1cccc(C(F)(F)F)c1)=N\NC(=O)NN show?
a: > 100 µM

q: Bench note: what TGI did COC(=O)[C@H]1CO[C@@H](C(C)(C)C)N1C(=O)N1C=CC(=O)C[C@@H]1C show?
a: > 100 µM

q: Bench note: what TGI did O=C(O)CCc1coc2ccc(O)cc12 show?
a: > 100 µM

q: Bench note: what TGI did O=C(Nc1ccc(C2=NCCN2)cc1)c1cncc(C(=O)Nc2ccc(C3=NCCN3)cc2)c1 show?
a: > 31.6 µM

q: Bench note: what TGI did Cc1cc(=O)[nH]c(NN2C(Cl)C(=O)C2c2ccccc2O)n1 (configuration not stated) show?
a: > 76.2 µM

q: Bench note: what TGI did COc1cc2c(cc1OC)-c1c3cc(O)ccc3nn[n+]1CC2 show?
a: > 100 µM

q: Bench note: what TGI did Brc1ccc(N=c2nc3ccccn3n3nc(-c4ccccc4)cc23)cc1 show?
a: > 100 µM

q: Bench note: what TGI did O=C(NNC(=O)c1ccccc1SSc1ccccc1C(=O)NNC(=O)c1ccccc1S)c1ccccc1S show?
a: > 49.8 µM

q: Bench note: what TGI did COc1ccc(CNc2nc(NCc3ccc(OC)c(OC)c3)nc(NC3CCCCC3)n2)cc1 show?
a: > 100 µM

q: Bench note: what TGI did COc1cc([C@@H]2OCC3C(c4ccc5c(c4)OCO5)OCC32)cc(OC)c1OC (some centres not stated) show?
a: > 100 µM

q: Bench note: what TGI did COc1ccc2c(C3=C(c4cn(C)c5ccccc45)C(=O)NC3=O)cn(C)c2c1 show?
a: > 25 µM

q: Bench note: what TGI did O=C(N/C(=C\c1ccc(/C=C(\NC(=O)c2ccccc2)c2nc3cc([N+](=O)[O-])ccc3[nH]2)cc1)c1nc2cc([N+](=O)[O-])ccc2[nH]1)c1ccccc1 show?
a: > 100 µM

q: Bench note: what TGI did CC(C)c1ccc(/C=C2/C=C(c3ccc4ccccc4c3)OC2=O)cc1 show?
a: > 100 µM

q: Bench note: what TGI did CCCCCCCCCCCCCCCCCC(CCCCCCCCCCCCCCCCC)OP(=O)(O)O show?
a: > 100 µM

###

# Test system: DMS 273 small cell lung
# Assay overview: NCI tumour cell line growth inhibition, 48 h
Provide the reported TGI of each item.

q: Bench note: what TGI did O=C1c2ccccc2C2C1N2C(=O)C(F)(F)F (stereo not drawn) show?
a: > 100 µM

q: Bench note: what TGI did Cc1cc(=O)[nH]c(NN2C(Cl)C(=O)C2c2ccccc2O)n1 (stereo not drawn) show?
a: 15.3 µM

q: Bench note: what TGI did N.N.N.N.O=[N+]([O-])[O-].[Co+3].[N-]=[N+]=[N-].[N-]=[N+]=[N-] show?
a: > 100 µM

q: Bench note: what TGI did O=C([O-])CC(=O)[O-].O=C([O-])CC(=O)[O-].[K+].[Pd+2] show?
a: > 100 µM

q: Bench note: what TGI did CC(=O)NC1=C(NCCC(C)C)C(=O)c2ccccc2C1=O show?
a: > 50 µM

q: Bench note: what TGI did Cc1ccc(N=Nc2ccc(N(CCC#N)CCC#N)cc2C)c(Br)c1 show?
a: 41.4 µM

q: Bench note: what TGI did CCCCC(=O)OCC(=O)[C@]1(O)Cc2c(O)c3c(c(O)c2[C@@H](OC2CC(NC(=O)C(F)(F)F)C(O)C(C)O2)C1)C(=O)c1c(OC)cccc1C3=O (stereo partly drawn) show?
a: 3.39 µM

q: Bench note: what TGI did CN(C)CC[N+]1=Nc2cccc3cccc(c23)N1 show?
a: 35.6 µM

q: Bench note: what TGI did O=CN/C=C/c1cc(O)ccc1O show?
a: > 100 µM

q: Bench note: what TGI did CC1C=C(CCCCCCCCCCCC[C@@H](O)[C@@H]2CC[C@@H]([C@@H]3CC[C@@H](C(O)CCCCCCCCCCCCC4=C[C@H](C)OC4=O)O3)O2)C(=O)O1 (stereo partly drawn) show?
a: > 100 µM

q: Bench note: what TGI did Cc1c2cnccc2c(C)c2c1c1ccccc1n2CCCN show?
a: 0.619 µM

q: Bench note: what TGI did COc1ccc(C(=O)C(C(=O)CCC(=O)Nc2ccc(C)c(C)c2)c2ccc(OC)cc2)cc1 (stereo not drawn) show?
a: > 100 µM

q: Bench note: what TGI did Cc1cccc2c(=O)cc(-c3ccccc3)[nH]c12 show?
a: > 100 µM

q: Bench note: what TGI did CCN(CC)CCC(=O)Nc1ccc2c(c1)C(=O)c1ccc(NC(=O)CCN(CC)CC)cc1C2=O show?
a: 3.82 µM

q: Bench note: what TGI did COC1(OC)CCC2C1C1CCC(OC)(OC)C21 (stereo not drawn) show?
a: > 50 µM

q: Bench note: what TGI did COc1ccc2c3c1C(=O)CCCC3CO2 (stereo not drawn) show?
a: > 100 µM

q: Bench note: what TGI did COc1cc2c(cc1OC)-c1c3cc(O)ccc3nn[n+]1CC2 show?
a: > 100 µM

q: Bench note: what TGI did CNC(=O)C(C)C1CCC2(C)C=CC(=O)C(C)=C2C1O (stereo not drawn) show?
a: > 58.1 µM

###

# Tested on: UACC-62 melanoma
# Assay overview: NCI tumour cell line growth inhibition, 48 h
Provide the reported TGI of each item.

q: Bench note: what TGI did CCOC(=O)C1=C(C)NC(=S)NC1c1ccccc1 (configuration not stated) show?
a: > 100 µM

q: Bench note: what TGI did COc1ccc(N2C(=O)C3c4[nH]c5ccccc5c4C4CCC(C(C)(C)C)CC4C3C2=O)c(C)c1 (configuration not stated) show?
a: > 100 µM

q: Bench note: what TGI did CCCN=C1CCN(Cc2ccccc2)c2ccccc2N1 show?
a: 26.2 µM

q: Bench note: what TGI did COc1ccc2c(=O)c(O)c(-c3ccc(OC)c(OC)c3)oc2c1 show?
a: > 100 µM

q: Bench note: what TGI did CC1=C(C(=O)Nc2ccc(Cl)c(Cl)c2)C(c2cccc(Oc3ccccc3)c2)NC(=S)N1 (configuration not stated) show?
a: 14.6 µM

q: Bench note: what TGI did C=C(C1=CC(=O)C(C)(C)O1)[C@@H]1CC=C([C@@H]2CC[C@H]3[C@@]2(C)CC[C@H]2C(C)(C)C(=O)[C@H](O)C[C@]32C)[C@H](O)O1 show?
a: 14.9 µM

q: Bench note: what TGI did COC(=O)CC1CCN(C#N)CC1CC[N+](=O)[O-] (configuration not stated) show?
a: > 100 µM

###

Provide the reported TGI of each item.
# Test system: U251 CNS
# Assay overview: NCI tumour cell line growth inhibition, 48 h

q: Bench note: what TGI did O=C(O)CN(CC(=O)O)C1CCCCC1N(CC(=O)O)CC(=O)NCCN=C=S (stereo unspecified) show?
a: > 100 µM

q: Bench note: what TGI did Cc1nc(C(N)=S)sc1/C(CC(=O)C(=O)Nc1cccc2ccc(O)cc12)=N\NC(=O)c1ccncc1 show?
a: > 100 µM

q: Bench note: what TGI did CC(C)c1ccc(/C=C2/C=C(c3ccc4ccccc4c3)OC2=O)cc1 show?
a: > 100 µM

q: Bench note: what TGI did Clc1ccc(/C=C/c2nc3ccccc3s2)cc1Cl show?
a: > 100 µM

q: Bench note: what TGI did COc1cc2c(cc1OC)C(c1ccccc1CCCCl)=NCC2 show?
a: > 100 µM

q: Bench note: what TGI did COC1CCC2C(NS(=O)(=O)c3ccc(C)cc3)CCCC2O1 (stereo unspecified) (tested in a mixture with another compound) show?
a: > 34.5 µM

src = PubChem BioAssay (NCI)
